System: EBOV/Mak
Test: microbe, parasite or virus in culture
Type: cell-based, Ebola virus
Conditions: Zaire ebolavirus
Structures can show the parent of a compound that is named as a salt.
Entries and their pIC50
Scale: pIC50 equals -log10([C]), with [C] in mol/L.

Cc1cccc(/C=N/Nc2cc(N3CCOCC3)nc(OCCc3ccccn3)n2)c1 = 8.00

Kindly consider the entry below.
Data request: Give the measured pIC50 of CN(C)CCOc1ccc(/C(=C(/CCCl)c2ccccc2)c2ccccc2)cc1 [Toremifene citrate] .
Data returned: 5.61
